System: SK-MEL-28 melanoma
Assay: NCI tumour cell line growth inhibition, 48 h
Consider the following compounds; for each one, report its TGI.

These solved cases illustrate the format of a correct answer.
CN(C)Cc1c(C(=O)NCCOc2ccc(C(=O)NO)cc2)oc2ccccc12 = 2.5 µM
O=[N+]([O-])/C(Cl)=C/C(=C1/Nc2ccccc2O1)[N+](=O)[O-] = 35.9 µM
Nc1nn(C(=O)Nc2c(F)cccc2F)c2ccccc12 = > 100 µM
O=C1NC(=NCCc2ccccn2)S/C1=C\c1ccc2ncccc2c1 = > 25 µM
O=c1[nH]c2cc([N+](=O)[O-])c(N/N=C/c3ccc(Cl)cc3Cl)c([N+](=O)[O-])c2[nH]1 = > 100 µM

Give measured TGI for every item shown.
1. CC1=N[C@@](C)(C2CC3C=CC2C3=O)COC1=O (some centres not stated)
2. CN(/N=C\c1ccnc2ccccc12)c1ccccc1
3. COc1cc(CNc2c3ccccc3nc3ccccc23)cc(OC)c1OC

> 100 µM
82.7 µM
20.2 µM

* * *

System: HT29 colon
Assay: NCI tumour cell line growth inhibition, 48 h; in the data active = GI50 below about 0.43 µM; inactive = the rest
Residues, ends and D or L forms follow the SMILES beside them. *: point of attachment. Cbz = O=C(OCc1ccccc1)*
# output must be one of 1 for active, 0 for inactive

Illustrative cases are given below, each with its answer.
CN(C)Cc1c(C(=O)NCCOc2ccc(C(=O)NO)cc2)oc2ccccc12 = 1
CC(C)C(=O)c1c(C(F)(F)F)n([O-])c2ccccc2[n+]1=O = 0
Cc1cccc(Cl)c1NC(=O)c1cnc(Nc2cc(N3CCOCC3)cc(S(C)(=O)=O)c2)s1 = 1
[Cu+2].[NH-]C(CC(=O)O)C(=O)O.[NH-]C(CC(=O)O)C(=O)O (stereo not drawn) = 0
CC(C)C[C@@H](C=O)NC(=O)[C@H](CC(C)C)NC(=O)[C@H](CC(C)C)NC(=O)OCc1ccccc1 (Cbz-Leu-Leu-Leu-aldehyde) = 1
O=C1NC(=NCCc2ccccn2)S/C1=C\c1ccc2ncccc2c1 = 0
Cc1ccc(OCCOCCOCCOCCOCCOc2ccc(C)n(O)c2=S)c(=S)n1O = 1
CC/C=C\C[C@H](O)C/C=C1/C(=O)C=C[C@@H]1C/C=C\CCCCO = 0
Cc1ccccc1C(C(=O)NC1CCCCC1)N(C(=O)CNc1ccc(C#N)cc1)c1cccc(F)c1 (stereo not drawn) = 0
COc1cc(CCC(=O)NC[C@@H](O)c2ccccc2)ccc1O = 0

// return assay outcome for CC(=O)N[C@@H](Cc1ccc(OP(=O)(O)O)cc1)C(=O)N[C@H]1CCC(=O)N2CCC[C@@H](C(=O)NCc3ccccc3)N2C1=O
0

// return assay outcome for CN(C)CCS(=O)(=O)Nc1cc(-c2ccc3ncc(C#N)c(Nc4ccc(F)c(Cl)c4)c3c2)cnc1Cl
1

// return assay outcome for Nc1ncn([C@H]2C[C@H](OP(=O)(O)OC[C@H]3O[C@@H](n4cnc5c(=O)[nH]c(N)nc54)C[C@@H]3O)[C@@H](CO)O2)c(=O)n1
0

* * *

Consider the following molecules; for each one, report its TGI.
Tested on: NCI-H522 lung
Assay: NCI tumour cell line growth inhibition, 48 h

These solved cases illustrate the format of a correct answer.
Cc1cc(S(=O)(=O)NC(=NCCc2ccccc2)NN)c(S)cc1Cl = > 100 µM
Cc1ccc(S(=O)(=O)OCCOCCOCCOCCOCCOS(=O)(=O)c2ccc(C)cc2)cc1 = > 100 µM

Give measured TGI for every item shown.
1. Cc1ccccc1C(C(=O)NC1CCCCC1)N(C(=O)CNc1ccc(C#N)cc1)c1cccc(F)c1 (stereo unspecified)
2. O=C(O)CCCN=C(C1=C(O)C(=O)N(c2ccccc2)C1=O)c1ccccc1

> 100 µM
> 100 µM

Give measured TGI for every item shown.
1. Nc1cc(Cl)ccc1SSc1ccc(Cl)cc1N
2. CCOC(=O)N/N=C(\CC)OCC

1: 23.8 µM; 2: > 100 µM

Give measured TGI for every item shown.
1. CN(C)CCNC(=O)c1ccc2oc3cc4ccccc4c(=O)n3c2c1
2. COC(=O)C(=O)C(/C(=N/N)C(=O)Nc1ccccc1C(N)=O)c1nc2ccc([N+](=O)[O-])cc2[nH]c1=O (stereo unspecified)

39.8 µM
> 100 µM

Give measured TGI for every item shown.
1. COc1cc(C2CC(=O)Nc3c2c(C)nn3-c2nc3ccccc3[nH]2)cc(OC)c1O (stereo unspecified)
2. CN(C)c1ccccc1[CH2][Ga]([Cl])[CH2]c1ccccc1N(C)C
3. CC(C)Cn1cnc2c(Cl)nc3ccccc3c21
4. NCCSC(c1ccccc1)(c1ccccc1)c1ccccc1

1. 5.78 µM
2. 3.45 µM
3. > 100 µM
4. 1.7 µM

* * *

System: HCT-15 colon
Test: NCI tumour cell line growth inhibition, 48 h
Residues, ends and D or L forms follow the SMILES beside them. *: point of attachment. Cbz = O=C(OCc1ccccc1)*
Consider the following compounds; for each one, report its TGI.

Give measured TGI for every item shown.
1. CC(C)Cn1cnc2c(Cl)nc3ccccc3c21
2. CC(C)C[C@@H](C=O)NC(=O)[C@H](CC(C)C)NC(=O)[C@H](CC(C)C)NC(=O)OCc1ccccc1 (Cbz-Leu-Leu-Leu-aldehyde)
3. CN(C)C(=NC#N)N(Cc1ccccc1)Cc1ccccc1

1: > 100 µM; 2: 10.2 µM; 3: 30.1 µM

Give measured TGI for every item shown.
1. N#Cc1c(N/N=C\c2ccc(Cl)cc2)nc(N)nc1N1CCOCC1
2. CN1NC(c2ccccc2)=C(C#N)C(=O)CC1c1ccc(F)cc1 (centres undefined)
3. O=c1[nH]c(=O)n(CCOc2ccc(Cl)cc2)cc1Nc1ccccc1
4. Cc1nc2c3c(ccc2[nH]c1=O)C(=O)c1ccccc1C3=O
5. CC(=O)OCC1OC(n2ncc(=O)[nH]c2=O)C(OC(C)=O)C1OC(C)=O (centres undefined)
6. Cc1ccc(C(=O)N/N=C(\N=Nc2ccccc2Cl)c2ccc(N(C)C)cc2)cc1

1: 97.3 µM; 2: > 100 µM; 3: > 100 µM; 4: > 100 µM; 5: > 100 µM; 6: > 100 µM

Give measured TGI for every item shown.
1. NC(=O)CCC(NC(=O)c1c2ccccc2nc2ccccc12)C(=O)O (centres undefined)
2. CC1Cc2ccccc2N1C(=O)Cc1nc(N2CCOCC2)cc(=O)[nH]1 (centres undefined)

1. > 100 µM
2. > 100 µM

* * *

System: 786-0 renal
Experiment: NCI tumour cell line growth inhibition, 48 h
RECORDED ENDPOINT: GI50

These solved cases illustrate the format of a correct answer.
Cc1ccsc1-c1ccc2c(c1)COC2(CCCN(C)C)c1ccc(F)cc1 (configuration not stated) = 2540 nM
COc1cc(/C=C/C(=O)c2c(-c3ccc(F)cc3)nc3sc(C)nn23)cc(OC)c1OC = 3310 nM
O=C(c1ccccc1)c1nc2ccc(C(F)(F)F)cc2nc1N1CCN(c2ccccc2)CC1 = 30700 nM
CC(C)C(=O)c1c(C(F)(F)F)n([O-])c2ccccc2[n+]1=O = 1650 nM
Cn1cc(C2=C(c3cn(CCCCCO)c4ccccc34)C(=O)NC2=O)c2ccccc21 = 5810 nM
CN(C)CCS(=O)(=O)Nc1cc(-c2ccc3ncc(C#N)c(Nc4ccc(F)c(Cl)c4)c3c2)cnc1Cl = 307 nM
CN(C)CCOc1ccccc1NC1=C(Cl)C(=O)C(Nc2ccccc2OCCN(C)C)=C(Cl)C1=O = 1640 nM
COc1ccc(NC(=O)c2ccc(NC3=C(Cl)C(=O)N(Cc4ccccc4)C3=O)cc2)c(OC)c1 = 23300 nM
COc1cc2nc3cc([N+](=O)[O-])ccc3c(NCCNCC(C)O)c2cc1OC (configuration not stated) = 1230 nM
Nc1ncn([C@H]2C[C@H](OP(=O)(O)OC[C@H]3O[C@@H](n4cnc5c(=O)[nH]c(N)nc54)C[C@@H]3O)[C@@H](CO)O2)c(=O)n1 = 71800 nM

Give measured GI50 for every item shown.
1. CN(C)Cc1c(C(=O)NCCOc2ccc(C(=O)NO)cc2)oc2ccccc12
2. COc1cc2c(c(OC)c1OC)-c1c(c3ccc([N+](=O)[O-])cc3c(=O)n1CCCN)C2=O
3. NCCSC(c1ccccc1)(c1ccccc1)c1ccccc1
4. CC(=O)OCCCC#CC#Cc1cccc(=O)o1
5. NC(=O)c1cc(Br)ccc1NC(=O)/C=C/c1ccccc1
6. Cn1c(-c2c(N)n(Cc3ccc(F)cc3)c3nc(C#N)c(C#N)nc23)nc2ccccc21
7. CN(C)C=Nc1c(I)cc(I)c(CCC(=O)O)c1I

["405 nM", "799 nM", "1220 nM", "19000 nM", "3720 nM", "918 nM", "> 100000 nM"]

* * *

Test system: SK-MEL-28 melanoma
Experiment: NCI tumour cell line growth inhibition, 48 h
Consider the following compounds; for each one, report its TGI.

These solved cases illustrate the format of a correct answer.
CNC(=O)c1cccc(C#Cc2cncnc2Nc2ccc(OCc3cccc(F)c3)c(Cl)c2)c1 = > 17.7 µM
COc1cc(CCNC(=O)OC(C)(C)C)c2c(c1OC)SSSSS2 = 3.68 µM
Cc1ccc(OCCOCCOCCOCCOCCOc2ccc(C)n(O)c2=S)c(=S)n1O = > 48.7 µM
Cc1cn(Cc2cn(CC3OC(n4cc(C)c(=O)[nH]c4=O)CC3O)nn2)c(=O)[nH]c1=O (configuration not stated) = > 100 µM
CCCCCCCCCCOCCOCCOCCOCCCCC(O)CCCCCCCC1=C[C@H](C)OC1=O (some centres not stated) = 25.3 µM

Give measured TGI for every item shown.
1. N#Cc1c(N/N=C\c2ccc(Cl)cc2)nc(N)nc1N1CCOCC1
2. NC(=O)CCSC(CC(=O)c1ccc(Cl)cc1)c1ccc(Cl)cc1 (configuration not stated)
3. COC(=O)C(=O)C(/C(=N/N)C(=O)Nc1ccccc1C(N)=O)c1nc2ccc([N+](=O)[O-])cc2[nH]c1=O (configuration not stated)
4. Cc1cccc(C)c1N=Nc1ccc(O)c(CN(C)C)c1

1: > 100 µM; 2: > 100 µM; 3: > 100 µM; 4: 60.6 µM

Give measured TGI for every item shown.
1. Cc1ccccc1C(C(=O)NC1CCCCC1)N(C(=O)CNc1ncccc1F)c1cccc(F)c1 (configuration not stated)
2. CC(=O)n1[nH]c(=O)n(-c2ccccc2)c1=O
3. O=C([CH-]C(=O)c1ccccc1)c1ccccc1.O=C([CH-]C(=O)c1ccccc1)c1ccccc1.O=C([CH-]C(=O)c1ccccc1)c1ccccc1.[Cl-].[Hf+4]

["> 100 µM", "> 100 µM", "82.5 µM"]

Origin of the recorded values: PubChem BioAssay (NCI)
